Measured values drawn from PubChem BioAssay (NCI) for this set.

System: HL-60(TB) leukemia
assaySummary: NCI tumour cell line growth inhibition, 48 h; in the data active = GI50 below about 0.43 µM; inactive = the rest
Classes to choose from: active, inactive

INSERT INTO results (querysmiles, measuredtarget, label) VALUES
  ('COc1ccc(C(=O)c2cc3c(N)c(C(=O)Nc4cccc(OC)c4)sc3nc2C)cc1', 'HL-60(TB) leukemia', 'active'),
  ('COc1ccc(C2=Nc3c/c(=C\c4c(O)[nH]c5cc(Cl)ccc45)ccc3=N2)cc1', 'HL-60(TB) leukemia', 'inactive'),
  ('COc1ccc2c(c1)/C(=N/OC(C)=O)c1c-2cnc2ccccc12', 'HL-60(TB) leukemia', 'inactive'),
  ('CC(=O)[C-](C(C)=O)c1ccccc1.CC(=O)[C-](C(C)=O)c1ccccc1.CC(=O)[C-](C(C)=O)c1ccccc1.[Cl-].[Zr+4]', 'HL-60(TB) leukemia', 'inactive'),
  ('O=C(/C=C/c1cccc2ccccc12)Nc1ncc(Cc2ccccc2)s1', 'HL-60(TB) leukemia', 'inactive');

Q. Tell me the assay call for COc1cc(Cn2c(-c3ccccc3)cc3c2-c2oncc2CC3)cc(OC)c1 please.
A. active

---

System: EKVX NSCLC
assaySummary: NCI tumour cell line growth inhibition, 48 h
parameterMeasured: TGI (µM)
Give bare numbers, in µM.

Example entries begin here.
INSERT INTO assay_data (compound, parametermeasured, reportedresult) VALUES
  ('COC(=O)c1ccc(NCC2=C(Br)C(=O)C=CC2=O)cc1Cl', 'TGI', 27.9),
  ('COc1cccc(NC2=C(Cl)C(=O)N(Cc3ccc(Cl)cc3)C2=O)c1', 'TGI', 38.8);

Please examine the following record next.
Q. Report TGI under test system EKVX NSCLC for C=CC(C)(O)CC/C=C(\CO)C(=O)OC1C(C)OC(O[C@](C)(C=C)CC/C=C(\CO)C(=O)O[C@H]2C[C@@]3(C(=O)OC4OC(CO)C(O)C(O)C4OC4OC(C)C(OC5OC(CO)C(O)C5O)C(OC5OC(CO)C(O)C(O)C5O)C4O)C(CC2(C)C)C2=CCC4[C@@]5(C)CC[C@H](OC6OC(COC7OC(C)C(O)C(O)C7OC7OCC(O)C(O)C7O)C(O)C(O)C6NC(C)=O)C(C)(C)C5CC[C@@]4(C)[C@]2(C)C[C@H]3O)C(O)C1O (some centres not stated) .
A. 5.02

---

Test system: SK-OV-3 ovarian
assaySummary: NCI tumour cell line growth inhibition, 48 h
parameterMeasured: log10 of TGI (log10 of the value in µM)
Transform log10 | Measure TGI | Unit µM

INSERT INTO results (compound, measuredtarget, parametermeasured, reportedresult) VALUES
  ('CCCCC[C@H]1CCCCCCCCCC(=O)OC2C(O[C@@H]3OC(C)[C@H](OC(=O)[C@@H](C)CC)C(O[C@@H]4OC(C)[C@H](O)C(O)[C@@H]4O)[C@@H]3OC(=O)[C@H](C)CC)[C@H](OC3C(O)[C@@H](O)C(C)O[C@H]3O1)OC(CO)[C@H]2O (stereo not given in full)', 'SK-OV-3 ovarian', 'log10 of TGI', 1.47);

For each listed entry, give its log10 of TGI.
1. COC(=O)c1cc(/C=C\c2cc(OC)ccc2OC)ccc1OC
2. O=[N+]([O-])/C(C(Cl)=C(Cl)Cl)=C(/Nc1ccccc1)Sc1ccccc1
3. CC(/C=N/N=C(N)N)=N\N=C(N)N
4. O=C1c2cc([N+](=O)[O-])sc2C(=O)c2c([N+](=O)[O-])csc21
5. COc1cc(/C=N/NC(=O)c2ccccc2Nc2cccc(C(F)(F)F)c2)cc(OC)c1OC
6. O=S1(=O)c2ccccc2N=C(c2ccccc2Cl)CC1c1ccc(F)cc1 (stereo not given)
7. C(=C/c1nc2ccccc2o1)/c1ccc2c(c1)OCO2
8. COc1cc2c(cc1OCCCOc1ccc(-c3nc4ccc(N5CCN(C)CC5)cc4[nH]3)cc1)N=C[C@@H]1CCCN1C2=O

A.
1: 1.92; 2: 1.63; 3: 2.74; 4: 0.49; 5: 0.93; 6: 1.95; 7: 1.73; 8: 1.36

---

Provide the recorded GI50 for the entries that follow.
Test system: UACC-257 melanoma
assaySummary: NCI tumour cell line growth inhibition, 48 h
Where a SMILES comes first, the peptide text is derived from it. The star is where a group is joined. Trt = c1ccc(C(c2ccccc2)(c2ccccc2)*)cc1; Cbz = O=C(OCc1ccccc1)*

Example entries begin here.
INSERT INTO results (compound, parametermeasured, reportedresult) VALUES
  ('Cc1c(Cl)c(C)c(Cc2c(C)c(Cl)c(C)c(Cl)c2O)c(O)c1Cl', 'GI50', '3.52 µM'),
  ('CN(C(=O)CNC(=O)/C=C/c1cccc(Cl)c1)C1CCS(=O)(=O)CC1', 'GI50', '> 100 µM'),
  ('CN=C(N)N/N=C(\C)c1ccc2c(c1)Cc1ccccc1-2', 'GI50', '1.96 µM'),
  ('COc1cccc2c1cc1c3c(cc4c(c32)OCO4)C(=O)N1', 'GI50', '27.3 µM'),
  ('COC(=O)C(CSC(c1ccccc1)(c1ccccc1)c1ccccc1)NC(=O)C(CC(N)=O)NC(=O)OCc1ccccc1 (stereo not drawn) (Cbz-Asn-Cys(Trt)-OMe; configuration not given here)', 'GI50', '8.92 µM'),
  ('Nc1nc(N)c2c(n1)NC(c1sc(Cl)nc1Cl)CC(c1ccc3c(c1)OCO3)=N2 (stereo not given)', 'GI50', '14.6 µM'),
  ('COc1ccc(C(=O)c2cc3c(N)c(C(=O)Nc4cccc(OC)c4)sc3nc2C)cc1', 'GI50', '> 100 µM'),
  ('O=C(/C=C/c1ccc([N+](=O)[O-])cc1)c1cccc(Nc2nc(Nc3ccccc3)nc(Nc3ccccc3)n2)c1', 'GI50', '68.7 µM'),
  ('Cc1cc2nc(-c3c(F)cccc3Cl)n(Cc3c(F)cccc3Cl)c2cc1C', 'GI50', '16.4 µM');

Please examine the following record next.
Q. For the compound Cn1cc(C2=C(c3cn(CCCCC(=N)N)c4ccccc34)C(=O)NC2=O)c2ccccc21 , give its reported GI50.
A. > 25 µM

---

Provide the recorded TGI for the entries that follow.
Tested on: 786-0 renal
assaySummary: NCI tumour cell line growth inhibition, 48 h
Numbers only, in µM.

Example entries begin here.
INSERT INTO assay_data (compound, measuredtarget, parametermeasured, measureunit, reportedresult) VALUES
  ('CC(=O)OCC1OC(n2c(-c3ccccc3)c(N=Nc3ccc(C)cc3)c(C)c(C#N)c2=S)C(OC(C)=O)C(OC(C)=O)C1OC(C)=O (stereo not given)', '786-0 renal', 'TGI', 'µM', 12.5),
  ('CCN(CC)Cc1cc(Nc2c3ccccc3nc3cc(Cl)ccc23)ccc1O', '786-0 renal', 'TGI', 'µM', 2.46),
  ('C=C1C(=O)OC2C3OC(C)(CCC(O)C3COC(C)=O)CC(OC(=O)/C(=C/C)COC(C)=O)C12 (stereo not given)', '786-0 renal', 'TGI', 'µM', 0.394),
  ('Nc1cc2c3c(cccc3c1)C(=O)N(c1ccc(OCCN3CCCC3)cc1)C2=O', '786-0 renal', 'TGI', 'µM', 31.5);

Please examine the following record next.
Q. For the compound Nc1c(C(=O)Nc2cccc3ccccc23)sc2nc3c(cc12)C(=O)CCC3 , give its reported TGI.
A. 35.8

---

System: NCI/ADR-RES ovarian
assaySummary: NCI tumour cell line growth inhibition, 48 h
parameterMeasured: GI50

INSERT INTO assay_data (compound, measuredtarget, reportedresult) VALUES
  ('COc1ccc(C2=Nc3c/c(=C\c4c(O)[nH]c5cc(Cl)ccc45)ccc3=N2)cc1', 'NCI/ADR-RES ovarian', '5 µM'),
  ('COc1ccc(C2=NC(c3ccc(Cl)cc3)C(c3ccc(Cl)cc3)N2C(=O)N2CCNC(=O)C2)c(OC(C)C)c1 (stereo unspecified)', 'NCI/ADR-RES ovarian', '1.92 µM'),
  ('O=C(Nc1cccc(C(F)(F)F)c1)c1cc2ccccc2cc1O', 'NCI/ADR-RES ovarian', '2.17 µM'),
  ('C=CC(C)(O)CC/C=C(\CO)C(=O)OC1C(C)OC(O[C@](C)(C=C)CC/C=C(\CO)C(=O)O[C@H]2C[C@@]3(C(=O)OC4OC(CO)C(O)C(O)C4OC4OC(C)C(OC5OC(CO)C(O)C5O)C(OC5OC(CO)C(O)C(O)C5O)C4O)C(CC2(C)C)C2=CCC4[C@@]5(C)CC[C@H](OC6OC(COC7OC(C)C(O)C(O)C7OC7OCC(O)C(O)C7O)C(O)C(O)C6NC(C)=O)C(C)(C)C5CC[C@@]4(C)[C@]2(C)C[C@H]3O)C(O)C1O (stereo partly specified)', 'NCI/ADR-RES ovarian', '2.68 µM'),
  ('CCOC(=O)c1c(C)n(Cc2ccccc2)c2c1cc1oc(=O)c(=O)n3cnc2c13', 'NCI/ADR-RES ovarian', '18.5 µM');

Please examine the following record next.
Q. For the compound O=Cc1ccc(N2CCN(c3ccc(C=O)cc3)CC2)cc1 , give its reported GI50.
A. > 100 µM
